Biological target: T1, sEGFR-MMB (dimeric sEGFR mimetibody) (human)
T1 construct: Disulfide linked homodimer, expressed in 293E cells; also called sEGFR-Fc
T1 sequence (chain, as listed by the source limits assumed): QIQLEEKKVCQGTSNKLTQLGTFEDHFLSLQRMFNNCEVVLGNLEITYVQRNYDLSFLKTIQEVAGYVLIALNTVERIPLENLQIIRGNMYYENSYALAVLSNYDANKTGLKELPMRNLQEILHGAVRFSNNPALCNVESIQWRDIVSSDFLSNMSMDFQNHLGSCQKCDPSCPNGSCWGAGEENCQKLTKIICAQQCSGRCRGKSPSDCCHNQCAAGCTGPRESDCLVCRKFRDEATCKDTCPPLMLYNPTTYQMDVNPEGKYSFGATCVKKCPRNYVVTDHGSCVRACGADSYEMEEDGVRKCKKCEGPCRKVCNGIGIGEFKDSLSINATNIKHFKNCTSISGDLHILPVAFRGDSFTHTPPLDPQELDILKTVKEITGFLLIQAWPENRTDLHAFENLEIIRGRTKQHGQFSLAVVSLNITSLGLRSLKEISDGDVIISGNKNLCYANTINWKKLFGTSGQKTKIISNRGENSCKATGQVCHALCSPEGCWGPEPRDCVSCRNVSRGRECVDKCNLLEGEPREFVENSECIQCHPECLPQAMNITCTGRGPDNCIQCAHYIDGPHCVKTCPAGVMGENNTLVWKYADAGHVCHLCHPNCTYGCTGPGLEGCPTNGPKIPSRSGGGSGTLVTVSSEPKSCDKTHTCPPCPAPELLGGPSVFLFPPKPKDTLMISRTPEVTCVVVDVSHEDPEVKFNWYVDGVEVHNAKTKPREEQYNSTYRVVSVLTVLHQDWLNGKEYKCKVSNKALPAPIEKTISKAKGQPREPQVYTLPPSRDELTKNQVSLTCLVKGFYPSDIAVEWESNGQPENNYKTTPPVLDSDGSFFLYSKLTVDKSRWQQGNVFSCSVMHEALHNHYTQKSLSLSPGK
Assay: phage ELISA on coated sEGFR-MMB, chemiluminescence (background typically <200 units)
Experimental Readout: ELISA signal (units)
One number for each entry, in units.

In the examples that follow, each entry is paired with its recorded ELISA signal.
GGGHVSLQSLPELICVVSGGGSGGSGG (pIX phagemid display; not shown: M13 phage coat protein pIX (MSVL...)) [SEQ ID NO: 14 (S15 hit, pIX phage)] = 1360
GGGVSGILPILVCHPAATGGGSGGSGG (pIX phagemid display; not shown: M13 phage coat protein pIX (MSVL...)) [SEQ ID NO: 12 (S15 hit, pIX phage)] = 1110
GGGLPDLICAVDSGTSGAGGGSGGSGG (pIX phagemid display; not shown: M13 phage coat protein pIX (MSVL...)) [SEQ ID NO: 21 (S15 hit, pIX phage)] = 1160
GGGPIFSSLPVLYCTSQLGGGSGGSGG (pIX phagemid display; not shown: M13 phage coat protein pIX (MSVL...)) [SEQ ID NO: 18 (S15 hit, pIX phage)] = 1420
GGGELGLPTLLCWPTDTLGGGSGGSGG (pIX phagemid display; not shown: M13 phage coat protein pIX (MSVL...)) [SEQ ID NO: 11 (S15 hit, pIX phage)] = 9380

Give ELISA signal for each of the items listed below.
1. GGGSTITSLPTLQCWPILGGGSGGSGG (pIX phagemid display; not shown: M13 phage coat protein pIX (MSVL...)) [SEQ ID NO: 16 (S15 hit, pIX phage)]
2. GGGYRLFVDESIFFCTRLGGGSGGSGG (pIX phagemid display; not shown: M13 phage coat protein pIX (MSVL...)) [SEQ ID NO: 10 (S15 hit, pIX phage)]
3. GGGPIDDESLPVLYCVTSGGGSGGSGG (pIX phagemid display; not shown: M13 phage coat protein pIX (MSVL...)) [SEQ ID NO: 17 (S15 hit, pIX phage)]
4. GGGGADTLPDLLCWESSLGGGSGGSGG (pIX phagemid display; not shown: M13 phage coat protein pIX (MSVL...)) [SEQ ID NO: 19 (S15 hit, pIX phage)]
5. GGGNWFSLPTLLCFPLNPGGGSGGSGG (pIX phagemid display; not shown: M13 phage coat protein pIX (MSVL...)) [SEQ ID NO: 15 (S15 hit, pIX phage)]

## Result
1: 13300; 2: 3080; 3: 1780; 4: 5720; 5: 3670

Give ELISA signal for each of the items listed below.
1. GGGLPDDSLPELICKVRGGGGSGGSGG (pIX phagemid display; also called PP175; not shown: M13 phage coat protein pIX (MSVL...)) [P175 phage (S15, pIX)]
2. GGGTVFTLPELVCVVAGTGGGSGGSGG (pIX phagemid display; not shown: M13 phage coat protein pIX (MSVL...)) [SEQ ID NO: 20 (S15 hit, pIX phage)]

## Result
1: 6790; 2: 1520
